- target_of_assay: T1, pKal (Homo sapiens, UniProt P03952)
- T1 construct: two disulfide linked polypeptides; a heavy chain of approximately 52 kDa and a catalytic domain of approximately 34 kDa; host or cells: human plasma
- assay_notes: Fab fragments (small scale) tested for inhibition against human pKal in an in vitro protease cleavage assay
- Assay type: biochemical
- measurement_setup: Table 9
- Experimental: By DNA sequencing, we recovered 61 of the possible 80 antibodies (Table 9). These antibodies were produced as Fab fragments in small scale (˜20 μg) and tested for inhibition against human pKal in an in vitro protease cleavage assay using Pro-Phe-Arg-aminomethylcoumarin as the synthetic peptide substrate. […] The antibodies were analyzed by SDS-PAGE to determine which of the inhibitory mutants are not cleaved by the host cell protease(s) (data not shown).

- molecule: "X67-G01: single point mutation of M142-H08 (P2); HV-CDR3 GGLLLWCRELKSNYFDY (antibody, V domains shown) VL: QDIQMTQSPSSLSAFVGDRVTITCRASQPIDNYLNWYHQKPGKAPKLLIYAASRLQSGVPSRLSGSGFGTDFTLTISSLQPEDFGNYYCQQSYTVPYTFGGGTKVEIR VH: EVQLLESGGGLVQPGGSLRLSCAASGFTFSAYSMIWVRQAPGKGLEWVSYIRPSGGRTTYADSVKGRFTISRDNSKNTLYLQMNSLRAEDTAVYYCARGGLLLWCRELKSNYFDYWGQGTLVTVSSASTKGPSVFPLAPSSKS"
  Inhibit as a Fab?: "No"
- molecule: "X69-D02: single point mutation of M142-H08 (P1′); HV-CDR3 GGLLLWFRHLKSNYFDY (antibody, V domains shown) VL: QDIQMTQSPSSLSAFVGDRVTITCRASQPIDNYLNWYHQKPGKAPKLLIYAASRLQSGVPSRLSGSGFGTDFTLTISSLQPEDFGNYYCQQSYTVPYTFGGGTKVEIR VH: EVQLLESGGGLVQPGGSLRLSCAASGFTFSAYSMIWVRQAPGKGLEWVSYIRPSGGRTTYADSVKGRFTISRDNSKNTLYLQMNSLRAEDTAVYYCARGGLLLWFRHLKSNYFDYWGQGTLVTVSSASTKGPSVFPLAPSSKS"
  Inhibit as a Fab?: "No"
